- System name: Aβ1-42 fibrils (Homo sapiens)
- Construct: Aβ1-42 was firstly dissolved in HFIP
- Sequence (P05067 672-713 limits assumed): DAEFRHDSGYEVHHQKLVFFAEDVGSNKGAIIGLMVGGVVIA
- Test method notes: biochemical
- Recorded conditions: read-out: Aβ destabilization IC50
Observation type: IC50 (µM)
# number only, unit µM dropped from output

Answered examples (4):
| Compound | IC50 / µM |
| --- | --- |
| COc1cc(OC)c2c(=O)cc(-c3ccccc3)oc2c1 | 75.9 |
| COc1cc(OC)c2c(=O)c(OC)c(-c3ccccc3)oc2c1 | 83.9 |
| COc1ccc(-c2oc3cc(OC)cc(OC)c3c(=O)c2OC)cc1 | 51.3 |
| COc1cc(O)c2c(=O)c(OC)c(-c3ccccc3)oc2c1 [F4, 5-hydroxy-3,7-dimethoxyflavone] | 63.9 |

Consider the record given below.
query: Report IC50 for COc1ccc(-c2cc(=O)c3c(OC)cc(OC)cc3o2)cc1 please.
result: 39.5

---

Measured viability at 0.1 µM, listed per entry.
- Test method notes: Cytotoxicity in differentiated SH-SY5Y cells, MTT
- Assay type: cell-based
- Recorded conditions: human, differentiated SH-SY5Y neuroblastoma cells; 0.1 µM, SH-SY5Y, MTT, average of 5; read-out: %Cell viability (cytotoxicity)
Note: unit % is implicit; provide only the numeric part.

| Compound | viability at 0.1 µM [%] |
| --- | --- |
| COc1cc(O)c2c(=O)c(OC)c(-c3ccccc3)oc2c1 [F4, 5-hydroxy-3,7-dimethoxyflavone] | 102 |

Now consider the entry below.
query: Looking for the measured viability at 0.1 µM of COc1cc(OC)c2c(=O)c(OC)c(-c3ccccc3)oc2c1 , can you help?
result: 103

---

viability at 0.1 µM by entry:
- Test method notes: Cytotoxicity in differentiated SH-SY5Y cells, MTT
- Assay type: cell-based
- Recorded conditions: human; 0.1 µM, SH-SY5Y, MTT, average of 5; read-out: %Cell viability (cytotoxicity)
Give the value in % but do not write % after it.

| Substance smiles | Reported value |
| --- | --- |
| COc1ccc(-c2oc3cc(OC)cc(OC)c3c(=O)c2OC)cc1 | 99.9 |

Next compound, please.
query: What does the data say about its viability at 0.1 µM? Entry: COc1ccc(-c2cc(=O)c3c(OC)cc(OC)cc3o2)cc1
result: 101

---

Reported viability at 1 µM values follow for various molecules
- Test method notes: Cytotoxicity in differentiated SH-SY5Y cells, MTT
- Assay type: cell-based
- Recorded conditions: human; 1 µM, SH-SY5Y, MTT, average of 5; read-out: %Cell viability (cytotoxicity)
// note: answer is a bare numeric in %

| Molecule | Observation type | Reported value |
| --- | --- | --- |
| COc1ccc(-c2oc3cc(OC)cc(OC)c3c(=O)c2OC)cc1 [F5, 3,5,7,4′-tetramethoxyflavone] | viability at 1 µM | 99.8 |

query: Which viability at 1 µM value is on record for COc1ccc(-c2cc(=O)c3c(OC)cc(OC)cc3o2)cc1 [F3, 5,7,4′-trimethoxyflavone] ?
result: 102

---

- Test method notes: Cytotoxicity in differentiated SH-SY5Y cells, MTT
- Type: cell-based
- Recorded conditions: human; 100 µM, SH-SY5Y, MTT, average of 5; read-out: %Cell viability (cytotoxicity)
Observation type: viability at 100 µM (%)
A number alone suffices; assume %.

| Substance smiles | viability at 100 µM, % |
| --- | --- |
| COc1ccc(-c2cc(=O)c3c(OC)cc(OC)cc3o2)cc1 | 95.5 |

Next compound, viability at 100 µM to be filled in.
query: Given the entry COc1ccc(-c2oc3cc(OC)cc(OC)c3c(=O)c2OC)cc1 , report its measured viability at 100 µM.
result: 102

All figures here come from paper PMC11892870.
